Target: Ba/F3-KDR-transfected cells (Homo sapiens)
Sequence (P35968 whole entry, change not shown): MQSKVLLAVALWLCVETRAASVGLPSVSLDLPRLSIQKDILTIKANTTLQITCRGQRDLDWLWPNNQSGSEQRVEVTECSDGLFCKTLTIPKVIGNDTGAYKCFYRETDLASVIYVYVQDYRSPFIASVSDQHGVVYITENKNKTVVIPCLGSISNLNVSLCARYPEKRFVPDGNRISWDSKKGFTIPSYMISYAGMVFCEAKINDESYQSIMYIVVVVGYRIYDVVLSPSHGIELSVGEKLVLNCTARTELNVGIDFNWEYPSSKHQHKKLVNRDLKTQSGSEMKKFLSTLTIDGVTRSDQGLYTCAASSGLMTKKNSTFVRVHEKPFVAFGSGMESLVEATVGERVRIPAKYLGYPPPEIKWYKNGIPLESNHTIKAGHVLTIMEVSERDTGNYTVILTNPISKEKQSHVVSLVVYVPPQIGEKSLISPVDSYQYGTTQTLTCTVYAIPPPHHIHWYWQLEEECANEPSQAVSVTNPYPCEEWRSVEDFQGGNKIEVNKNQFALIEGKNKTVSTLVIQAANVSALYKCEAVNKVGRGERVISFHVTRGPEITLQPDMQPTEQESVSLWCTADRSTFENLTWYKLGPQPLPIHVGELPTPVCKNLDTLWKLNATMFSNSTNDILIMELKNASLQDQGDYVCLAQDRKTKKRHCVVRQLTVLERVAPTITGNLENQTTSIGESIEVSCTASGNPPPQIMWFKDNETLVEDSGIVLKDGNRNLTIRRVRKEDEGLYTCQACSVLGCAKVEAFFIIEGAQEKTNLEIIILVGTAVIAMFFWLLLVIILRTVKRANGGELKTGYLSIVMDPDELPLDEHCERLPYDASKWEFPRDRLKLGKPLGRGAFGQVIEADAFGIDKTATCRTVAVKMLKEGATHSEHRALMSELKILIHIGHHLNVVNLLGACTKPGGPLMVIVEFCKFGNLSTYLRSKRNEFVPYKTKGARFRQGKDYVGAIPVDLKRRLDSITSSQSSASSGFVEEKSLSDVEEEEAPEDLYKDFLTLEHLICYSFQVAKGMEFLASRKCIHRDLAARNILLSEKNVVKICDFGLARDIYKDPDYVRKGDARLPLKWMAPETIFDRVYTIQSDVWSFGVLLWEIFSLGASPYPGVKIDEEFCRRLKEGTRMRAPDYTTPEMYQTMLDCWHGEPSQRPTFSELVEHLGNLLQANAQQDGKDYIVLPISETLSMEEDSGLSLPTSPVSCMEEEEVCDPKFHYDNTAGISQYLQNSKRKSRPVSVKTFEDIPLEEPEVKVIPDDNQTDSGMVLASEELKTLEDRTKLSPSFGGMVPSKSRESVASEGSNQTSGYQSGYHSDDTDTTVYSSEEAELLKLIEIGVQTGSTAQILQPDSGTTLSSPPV
Assay: Ba/F3-KDR (minus IL3) cellular proliferation assay, Alamar Blue
Assay type: cell-based
Conditions: minus IL3
Experimental: Ba/F3-KDR (Minus IL3 or Plus IL3) (Cellular Proliferation Assay) In a 384 well plate, 100 nl of compound dilution in DMSO was sprayed before adding 50 μl cell culture medium (phenol red free RPMI-1640, 10% FBS, 2 mM L-Glutamine and 50 μg/ml Gentamycin) containing 20000 cells per well of Ba/F3-KDR-transfected cells. Cells were put in an incubator at 37° C. and 5% CO2. […]
measure.name: BAF3-KDR (MIN IL3) 384 well pIC50

COc1cc(OC)cc(N(CCNC(C)C)c2ccc3ncc(-c4ccn[nH]4)nc3c2)c1 = 5.14
COc1cc(OC)cc(N(CCCO)c2ccc3ncc(-c4ccc(N5CCOCC5)nc4)nc3c2)c1 = 5.11
COc1cc(OC)cc(N(CCCO)c2ccc3ncc(-c4ccnc(N)c4)nc3c2)c1 = 5.52

Origin of values: patent US10052320B2
